B1: NR2F2 (parent)
chain: VAHVESLQEKSQCALEEYVRSQYP

# Variants of: B1
# Measurement protocol: protein stability index of a GFP-peptide fusion (GPS, HEK-293T) (PSI 1-6); higher = more stable;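 further: lentivirally expressed fusions sorted by FACS into six bins by GFP to DsRed ratio, PSI derived from sequencing read proportions per bin multiplied by bin number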
# Reported conditions: c terminus: a fixed tail appended
Provide the reported protein stability index of each item.
Answer as a number with no unit attached.

INPUT: Need protein stability index of `P24I` , thanks.
OUTPUT: 3.19

INPUT: Then what about the variant `Q12K` ?
OUTPUT: 3.76

INPUT: For `L7D` then?
OUTPUT: 4.29

INPUT: And the next one, `E16Q` ?
OUTPUT: 3.68

INPUT: Also `E17Y` ?
OUTPUT: 2.11

INPUT: Consider next the variant `S11L` in the same way.
OUTPUT: 3.2

INPUT: `C13I` ?
OUTPUT: 3.45

INPUT: Do the same for `Q8K` please
OUTPUT: 3.88

INPUT: // repeat for `V19T` and report
OUTPUT: 3.67

INPUT: Cool, now `V19F`
OUTPUT: 3.34

INPUT: Here is the next variant: `V1C`
OUTPUT: 2.66

INPUT: Try this variant too: `L7G`
OUTPUT: 3.55

INPUT: Entry to check: `E16N`
OUTPUT: 3.63

INPUT: Input `S11Q`
OUTPUT: 2.97

INPUT: What about this variant? `A2P`
OUTPUT: 3.76

INPUT: Another variant: `E16D`
OUTPUT: 3.62

INPUT: What about `K10G` ?
OUTPUT: 3.81

INPUT: Then `P24L` ?
OUTPUT: 3.15

INPUT: Similarly, `E17C` ?
OUTPUT: 2.89

INPUT: Next up: `E16A`
OUTPUT: 3.59

INPUT: What do you get for `Q8R` ?
OUTPUT: 3.68

INPUT: Lookup `H3S`
OUTPUT: 3.68

INPUT: Cool, now `L15H`
OUTPUT: 4.35

INPUT: `H3R` , same question.
OUTPUT: 3.45

INPUT: Note, next up: `V4D`
OUTPUT: 4.06

INPUT: Next: `Y23H`
OUTPUT: 3.88

INPUT: `V1S` , same question.
OUTPUT: 3.53

INPUT: # iterate: `V1T`
OUTPUT: 4.19

INPUT: Also `S6W` ?
OUTPUT: 2.77

INPUT: Proceed to `K10T`
OUTPUT: 3.92

INPUT: Also check `E5G`
OUTPUT: 2.9

INPUT: // repeat for `S21D` and report
OUTPUT: 3.77

INPUT: Please give the result for `V19S` too.
OUTPUT: 4.08

INPUT: And for `H3E` ?
OUTPUT: 4.95

INPUT: What would you report for `Q8Y` ?
OUTPUT: 2.73

INPUT: Do the same for `H3V` please
OUTPUT: 2.83

INPUT: Would you kindly repeat that for `L15M` ?
OUTPUT: 3.84

INPUT: // query: `V4K`
OUTPUT: 3.79

INPUT: Proceed to `Q8G`
OUTPUT: 3.56

INPUT: Also `Y23M` ?
OUTPUT: 3.46

INPUT: Next entry: `V19W`
OUTPUT: 3.06

INPUT: Subsequent entry: `S11Y`
OUTPUT: 2.36

INPUT: Similarly, `E5R` ?
OUTPUT: 2.63

INPUT: Please answer likewise for `V19D`
OUTPUT: 4.26

INPUT: Follow-up entry: `C13V`
OUTPUT: 4.05

INPUT: Repeat for the following variant: `Q12E`
OUTPUT: 4.6

INPUT: Thanks! And `Q22C` ?
OUTPUT: 3.19

INPUT: And what about the variant `E5L` ?
OUTPUT: 2.37

INPUT: Please do the same for `Q22W` as well.
OUTPUT: 2.1

INPUT: Quick one: `A2T`
OUTPUT: 3.73

INPUT: Then this variant: `S21H`
OUTPUT: 3.46

INPUT: # iterate: `L15P`
OUTPUT: 4.88

INPUT: Then what about the variant `Y23L` ?
OUTPUT: 3.75

INPUT: `L7H` ?
OUTPUT: 3.71

INPUT: Same question for `A14W` please.
OUTPUT: 2.5

INPUT: Please give the result for `V19L` too.
OUTPUT: 3.17

INPUT: Check `A14P` too.
OUTPUT: 4.11

INPUT: Try the variant `P24D`
OUTPUT: 4.29

INPUT: Please give the result for `E5Y` too.
OUTPUT: 2.13

INPUT: Now the variant `E17F`
OUTPUT: 2.34

INPUT: // repeat for `Y23P` and report
OUTPUT: 4.15

INPUT: // repeat for `A14Y` and report
OUTPUT: 3.19

INPUT: Same lookup for `S21Y` , please.
OUTPUT: 2.89

INPUT: Same lookup for `S21G` , please.
OUTPUT: 3.67

INPUT: Then this variant: `E5F`
OUTPUT: 1.92

INPUT: Try `Q8F` next.
OUTPUT: 2.48

INPUT: Next: `Q8H`
OUTPUT: 3.49

INPUT: Entry `E16G` please
OUTPUT: 3.21

INPUT: Record: `S11F`
OUTPUT: 1.78

INPUT: Try this variant too: `S6C`
OUTPUT: 3.48

INPUT: Now this one: `Q12N`
OUTPUT: 3.54

INPUT: Item: `V19P`
OUTPUT: 4.73

INPUT: # iterate: `L15W`
OUTPUT: 2.33

INPUT: Try the variant `R20I`
OUTPUT: 3.36

INPUT: Follow-up entry: `S11E`
OUTPUT: 4.36

INPUT: Next variant up: `Y18A`
OUTPUT: 3.97

INPUT: What do you get for `V1A` ?
OUTPUT: 3.29

INPUT: Let us now turn to `Q8L`
OUTPUT: 2.89

INPUT: Please do the same for `V1L` as well.
OUTPUT: 3.5

INPUT: Entry to check: `K10L`
OUTPUT: 3.07

INPUT: Try this variant too: `R20S`
OUTPUT: 3.65

INPUT: Also `E16R` ?
OUTPUT: 3.65

INPUT: Same question for `A2I` please.
OUTPUT: 2.56

INPUT: Also `L7P` , if possible.
OUTPUT: 4.43

INPUT: Consider next the variant `P24G` in the same way.
OUTPUT: 3.72

INPUT: Param item: `Y18W`
OUTPUT: 3.66

INPUT: Let us now turn to `E9W`
OUTPUT: 2.27

INPUT: Queued: `L7Y`
OUTPUT: 3.45

INPUT: # repeat for `A14C`
OUTPUT: 3.41

INPUT: `A2L` ?
OUTPUT: 2.85

INPUT: Another variant: `V1K`
OUTPUT: 3.66

Each recorded value in this set is attributed to the supplement of paper PMC10567573.
